assay: pH stability of quenched linker-payloads in buffers (LCMS); format: physicochemical; conditions: pH 5.0, day 1
P: percentage of budesonide released from the linker-payloads listing for selected molecules.
Number in %, nothing else.

CCCC1O[C@@H]2C[C@H]3[C@@H]4CCC5=CC(=O)C=C[C@]5(C)[C@H]4[C@@H](O)C[C@]3(C)[C@]2(C(=O)COC2CCCN2C(=O)CNC(=O)CCOCCOCCOCCOCCNC(=O)CCC(=O)N2Cc3ccccc3-c3c(nnn3CCOCCOCCOCCOCCC(=O)NCCS(=O)(=O)O)-c3ccccc32)O1 (some centres unmarked) [Q1L6-PII-9] | 5
CCCC1O[C@@H]2C[C@H]3[C@@H]4CCC5=CC(=O)C=C[C@]5(C)[C@H]4[C@@H](O)C[C@]3(C)[C@]2(C(=O)COCNC(=O)CNC(=O)OCc2ccc(O[C@@H]3O[C@H](CO)[C@@H](O)[C@H](O)[C@H]3O)c(C(=O)NCCNC(=O)COC3C#CCCCCC3)c2)O1 (some centres unmarked) [L18-PII-1, COT-EDA-(GLC)PAB-G-NHCH2-Bud] | 0
CCCC1O[C@@H]2C[C@H]3[C@@H]4CCC5=CC(=O)C=C[C@]5(C)[C@H]4[C@@H](O)C[C@]3(C)[C@]2(C(=O)COCN(C)C(=O)CNC(=O)OCc2ccc(NC(=O)[C@H](CCCNC(N)=O)NC(=O)[C@@H](NC(=O)CCOCCOCCOCCOCCNC(=O)CCC(=O)N3Cc4ccccc4-c4c(nnn4CCOCCOCCOCCOCCC(=O)NCCS(=O)(=O)O)-c4ccccc43)C(C)C)cc2)O1 (some centres unmarked) [Q1L1-PII-8] | 0
CCCC1OC2CC3C4CCC5=CC(=O)C=CC5(C)C4C(O)CC3(C)C2(C(=O)COCN2CCCC(NC(=O)OCc3ccc(NC(=O)C(CCCNC(N)=O)NC(=O)C(NC(=O)CCOCCOCCOCCOCCNC(=O)CCC(=O)N4Cc5ccccc5-c5c(nnn5CCOCCOCCOCCOCCC(=O)NCCS(=O)(=O)O)-c5ccccc54)C(C)C)cc3)C2=O)O1 (mixture of isomers) [Q1L1-PII-12] | 0

// next entry
[ask] I have this molecule here, CCCC1OC2CC3C4CCC5=CC(=O)C=CC5(C)C4C(O)CC3(C)C2(C(=O)COC2CCN2C(=O)CNC(=O)CCOCCOCCOCCOCCNC(=O)CCC(=O)N2Cc3ccccc3-c3c(nnn3CCOCCOCCOCCOCCC(=O)NCCS(=O)(=O)O)-c3ccccc32)O1 (mixture of isomers) [Q1L6-PII-13] , and I need its recorded P: percentage of budesonide released from the linker-payloads.
[reply] 0

###

EC50 listing for selected compounds.
target: GR (Homo sapiens, UniProt P04150); construct: host or cells: HEK293 (HEK293/GRLuc; HEK293/GRLuc/MSR1 additionally transduced with human MSR1); experiment: GR luciferase reporter assay in HEK293/GRLuc cells; format: cell-based; conditions: Table 8b, free payloads, 48 hours
Sequence (P04150 524-758 limits assumed): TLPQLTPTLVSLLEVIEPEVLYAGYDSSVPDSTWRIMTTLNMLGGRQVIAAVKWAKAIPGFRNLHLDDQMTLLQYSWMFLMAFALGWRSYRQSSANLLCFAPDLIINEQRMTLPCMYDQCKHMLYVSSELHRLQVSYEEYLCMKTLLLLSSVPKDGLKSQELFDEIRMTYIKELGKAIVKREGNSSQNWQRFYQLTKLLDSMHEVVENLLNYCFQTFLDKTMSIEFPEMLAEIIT
Number in nM, nothing else.

CCCC1O[C@@H]2C[C@H]3[C@@H]4C[C@H](F)C5=CC(=O)C=C[C@]5(C)[C@@]4(F)[C@@H](O)C[C@]3(C)[C@]2(C(=O)COCNC(=O)CN)O1 (some centres unmarked) | 0.0465

// next entry
[ask] I have this compound here, CCCC1O[C@@H]2C[C@H]3[C@@H]4C[C@H](F)C5=CC(=O)C=C[C@]5(C)[C@@]4(F)[C@@H](O)C[C@]3(C)[C@]2(C(=O)CO)O1 (some centres unmarked) , and I need its recorded EC50.
[reply] 0.0197
